Listed next: entries and their corresponding melting point.

Consider the following illustrative entries.
molecule: Cc1ccc(-c2c(C3CCN(C)CC3)[nH]c(=O)c3ccccc23)cc1
melting point: 244 to 246 °C
//
molecule: C1=c2cc3c(cc2Sc2ccccc21)=Cc1ccccc1S3
melting point: 276 to 280 °C
//
molecule: Cc1cc(-c2c(F)c(F)c3c(=O)c(C(=O)O)cn4c3c2OC[C@@H]4C)cc(C)n1
melting point: 307 to 310 °C
//
molecule: CCOC(=O)/C=C/c1cnn(Cc2ccc(OCc3nc(-c4ccccc4)oc3C)cc2)c1
melting point: 112 to 113 °C

melting point measured on CCOC(=O)C(Cc1ccc(O)cc1)c1cc2cc(C#N)ccc2s1 (stereo not given) = 146 to 147 °C
